Readings of inhibition at 1 µM for the listed compounds
Target: human recombinant histamine H2 receptor (Homo sapiens, UniProt P25021)
Construct: expressed in transfected cells; host or cells: CHO-K1 cells
Sequence (P25021 whole entry): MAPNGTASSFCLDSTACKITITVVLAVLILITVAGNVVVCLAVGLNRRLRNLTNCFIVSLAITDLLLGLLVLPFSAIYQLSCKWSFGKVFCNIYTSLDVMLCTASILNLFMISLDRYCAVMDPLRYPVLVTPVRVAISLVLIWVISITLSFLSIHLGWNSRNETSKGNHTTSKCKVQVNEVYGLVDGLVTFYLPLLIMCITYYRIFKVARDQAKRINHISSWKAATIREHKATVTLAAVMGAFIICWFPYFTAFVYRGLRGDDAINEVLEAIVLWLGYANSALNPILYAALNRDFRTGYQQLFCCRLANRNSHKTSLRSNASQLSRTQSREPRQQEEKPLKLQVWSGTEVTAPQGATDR
Assay: Histamine H2 radioligand binding ([125I]Aminopotentidine)
Details: compound at 1 μM; read-out: Histamine Binding (1 μM) H2, percent inhibition of specific binding
Number in %, nothing else.

Solved cases below.
>>> number("CN1CCc2c(n(/C=C/c3ccc(F)cc3)c3ccc(Cl)cc23)CC1 [Compound No. 234]")
92
>>> number("Cc1ccc(C(O)Cn2c3c(c4cc(Cl)ccc42)CCN(C)CC3)cn1 (centres unmarked) [Compound No. 7]")
52
>>> number("COc1ccc(C(O)Cn2c3c(c4cc(C)ccc42)CCN(C)CC3)cc1 (centres unmarked) [Compound No. 48]")
56
>>> number("Cc1ccc2c(c1)c1c(n2CC(=O)NC(C)C)CCN(C)CC1 [Compound No. 54]")
-3
>>> number("Cc1ccc2c(c1)c1c(n2CC(=O)Nc2ccc(F)cc2)CCN(C)CC1 [Compound No. 44]")
1
>>> number("CN1CCc2c(n(CC(O)c3ccncc3)c3ccc(Cl)cc23)CC1 (centres unmarked) [Compound No. 42]")
45
>>> number("CN1CCc2c(n(C#Cc3ccc(F)cc3)c3ccc(Cl)cc23)CC1 [Compound No. 281]")
76
>>> number("Cc1ccc2c(c1)c1c(n2CCc2ccc(C(F)(F)F)nc2)CCN(C)CC1 [Compound No. 20]")
37
>>> number("COc1ccc(/C(C)=C/n2c3c(c4cc(Cl)ccc42)CCN(C)CC3)cc1F [Compound No. 157]")
93
>>> number("CN1CCc2c(n(CC(=O)OCc3ccccc3)c3ccc(Cl)cc23)CC1 [Compound No. 75]")
-4

Tell me the measured inhibition at 1 µM of COc1ccc(/C=C/n2c3c(c4cc(C)ccc42)CCN(C)CC3)c(F)c1 [Compound No. 230] , please.
89

// inhibition at 1 µM lookup, key: CC(C)NC(=O)Cn1c2c(c3cc(Cl)ccc31)CCN(C)CC2 [Compound No. 31]
-10

Returns the measured inhibition at 1 µM for the input compound. Input: C/C(=C\n1c2c(c3cc(C)ccc31)CCN(C)CC2)c1cccnc1 [Compound No. 247]
36

For the compound shown here, COc1ccc(C(O)Cn2c3c(c4cc(C)ccc42)CCN(C)CC3)c(F)c1 (centres unmarked) [Compound No. 50] , give the reported inhibition at 1 µM.
65

Any idea what its inhibition at 1 µM is? The compound is COc1ccc(C(O)Cn2c3c(c4cc(C)ccc42)CCN(C)CC3)cc1OC (centres unmarked) [Compound No. 227]
19

What value of inhibition at 1 µM has been recorded for this entry: Cc1ccc2c(c1)c1c(n2/C=C/c2ccc(Cl)cc2)CCN(C)CC1 [Compound No. 235]
94

Recorded inhibition at 1 µM of Cc1ccc2c(c1)c1c(n2CCc2cncc(Cl)c2)CCN(C)CC1 [Compound No. 4] , please.
59

Which inhibition at 1 µM is listed for COc1ccc(C(O)Cn2c3c(c4cc(Cl)ccc42)CCN(C)CC3)c(F)c1 (centres unmarked) [Compound No. 49] ?
65

Query (compound): CN1CCc2c(n(CCc3ccccc3F)c3ccc(Cl)cc23)CC1 [Compound No. 61] ; field requested: inhibition at 1 µM
89

Query: inhibition at 1 µM; subject: CN1CCc2c(n(CCc3ccccc3Cl)c3ccc(Cl)cc23)CC1 [Compound No. 29]
105

Requested field: inhibition at 1 µM. Item: C=C(Cn1c2c(c3cc(Cl)ccc31)CCN(C)CC2)c1ccc(F)cc1 [Compound No. 82]
95

Every entry's value here was drawn from patent US9481676B2.
